Test: Cytotoxicity against MDCK cells assessed as reduction in cell viability after 48 hrs by trypan blue staining based method
Design: species or system Canis lupus familiaris
Conditions: dog
Recorded CC50 at 48 h, one value per entry.

// solved cases for CC50 at 48 h follow
COc1ccc2cc([C@H](C)C(=O)O)ccc2c1: 1 mM
COc1ccc2cc(-c3c(C(=O)O)cc(Oc4ccc(N)cc4)cc3C(=O)O)ccc2c1: ≥ 10 mM

Now consider the entry below.
Given the entry "COc1ccc2cc(-c3c(C(=O)[O-])ccc(Oc4ccc(N)cc4)c3C(=O)[O-])ccc2c1.[Na+].[Na+]" , report its measured CC50 at 48 h.
≥ 10 mM

Reference source for all entries: ChEMBL document CHEMBL4196106
